Values were extracted from patent US6458552B1.

Biological target: T1, CD27L FRET peptide X-RFAQAQQQLP-Z (not fully specified)
T1 chain: RFAQAQQQLP

| Protein | Relative proteolytic activity |
| --- | --- |
| soluble recombinant human ADAM8, active (processed) form (protein) RYVELYVVVDNAEFQMLGSEAAVRHRVLEVVNHVDKLYQKLNFRVVLVGLEIWNSQDRFHVSPDPSVTLENLLTWQARQRTRRHLHDNVQLITGVDFTGTTVGFARVSAMCSHSSGAVNQDHSKNPVGVACTMAHEMGHNLGMDHDENVQGCRCQERFEAGRCIMAGSIGSSFPRMFSDCSQAYLESFLERPQSVCLANAP | **** |
| soluble recombinant human ADAM15, active form (protein) DVVTETKTVELVIVADHSEAQKYRDFQHLLNRTLEVALLLDTFFRPLNVRVALVGLEAWTQRDLVEISPNPAVTLENFLHWRRAHLLPRLPHDSAQLVTGTSFSGPTVGMAIQNSICSPDFSGGVNMDHSTSILGVASSIAHELGHSLGLDHDLPGNSCPCPGPAPAKTCIMEASTDFLPGLNFSNCSRRALEKALLDGMGSCLFERL | **** |
| recombinant ADAM17 (protein) RADPDPMKNTCKLLVVADHRFYRYMGRGEESTTTNYLIELIDRVDDIYRNTSWDNAGFKGYGIQIEQIRILKSPQEVKPGEKHYNMAKSYPNEEKDAWDVKMLLEQFSFDIAEEASKVCLAHLFTYQDFDMGTLGLAYVGSPRANSHGGVCPKAYYSPVGKKNIYLNSGLTSTKNYGKTILTKEADLVTTHELGHNFGAEHDPDGLAECAPNEDQGGKYVMYPIAVSGDHENNKMFSNCSKQSIYKTIESKAQECFQERSNKV | (-) |
| soluble recombinant human MDC-L, active form (protein) VQEHEKYIEYYLVLDNGEFKRYNENQDEIRKRVFEMANYVNMLYKKLNTHVALVGMEIWTDKDKIKITPNASFTLENFSKWRGSVLSRRKRHDIAQLITATELAGTTVGLAFMSTMCSPYSVGVVQDHSDNLLRVAGTMAHEMGHNFGMFHDDYSCKCPSTICVMDKALSFYIPTDFSSCSRLSYDKFFEDKLSNCLFNAP | **** |
